Entry source: PubChem BioAssay AID2650

MEASUREMENT TARGET: Glycogen synthase kinase-3 alpha (Homo sapiens) (UniProt P49840)
Sequence (P49840 whole entry, looked up): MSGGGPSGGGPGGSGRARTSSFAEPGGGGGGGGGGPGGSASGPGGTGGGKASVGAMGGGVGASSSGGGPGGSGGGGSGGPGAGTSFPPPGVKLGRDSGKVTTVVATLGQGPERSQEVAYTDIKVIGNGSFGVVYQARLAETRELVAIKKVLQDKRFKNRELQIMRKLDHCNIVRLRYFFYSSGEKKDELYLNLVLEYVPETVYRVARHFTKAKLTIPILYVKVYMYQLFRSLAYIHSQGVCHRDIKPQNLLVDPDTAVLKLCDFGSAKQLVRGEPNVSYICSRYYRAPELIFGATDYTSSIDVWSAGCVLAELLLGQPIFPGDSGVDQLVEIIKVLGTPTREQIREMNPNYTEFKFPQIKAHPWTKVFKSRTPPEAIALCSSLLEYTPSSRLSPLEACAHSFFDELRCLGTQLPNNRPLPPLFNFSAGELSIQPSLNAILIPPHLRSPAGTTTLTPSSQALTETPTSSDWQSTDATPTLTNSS
ASSAY REMARKS: blockers of GSK3A enzyme activity – biochemical, luminescence, cell-free homogeneous, HTS, primary screen (AID 2650);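 further: GST-tagged GSK-3 alpha with peptide substrate and 25 µM ATP; 0% = DMSO neutral wells and 100% = GW8510 positive control wells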
CONDITION: GSK-3 alpha kinase, ADP-Glo luminescence, 60 min; at 10 µM; hits give high values
Screen size: about 320,000 compounds; about 320 (0.1%) were called active. The sample holds actives, similar compounds and a random draw of the others, so the mix is not that of the screen.
READOUT KIND: inhibition (%)
Kindly provide the numeric value in % only, without the unit symbol.

>>> measured_number("Cc1ccccc1N(C(=O)Cc1cccs1)C(C(=O)NC1CCCCC1)c1cn(C)nc1C (stereo unspecified)")
-1.17

Note down inhibition recorded for CC(C)C[C@@H](COc1ccccc1)N1CCN(CC(C)C)CCC1=O -0.599

Note down inhibition recorded for CCCOc1ccc(Cc2c(O)nc(N)[nH]c2=O)cc1C -0.849

Note down inhibition recorded for Cc1ccc(N2C(=O)CC(N3CCSCC3)C2=O)c(C)c1 (stereo unspecified) -1.07

Note down inhibition recorded for O=C(Nc1ccccc1-c1nnn(CC(=O)N2CCCc3ccccc32)n1)c1cccc(Cl)c1 -2.04

Note down inhibition recorded for O=S(=O)(NC1CC2CCC1C2)c1ccc(Cl)cc1 (stereo unspecified) -0.939
